Test system: Escherichia coli
Experiment: Antibacterial activity against KPC producing Escherichia coli ATCC BAA-2340 assessed as inhibition of bacterial growth incubated for 18 to 24 hrs by broth microdilution method
Assay type: functional
Conditions: time 18-24 hrs
Bridge positions count the residues as written; N and C are the ends. Square brackets hold non-standard residues; d marks the D form. Peptide text beside a SMILES is read from it. * marks the point of attachment. X1 = CC[C@H](C)CCCCC(=O)*; Dab = NCC[C@H](N)C(=O)O
For each of the compounds below, state its MIC.

What MIC appears in the records for this compound with Escherichia coli? CC[C@H](C)CCCCC(=O)N[C@@H](CCN)C(=O)N[C@H](C(=O)N[C@@H](CCN)C(=O)N[C@H]1CCNC(=O)[C@H]([C@@H](C)O)NC(=O)[C@H](CCN)NC(=O)[C@H](CCN)NC(=O)[C@H](CC(C)C)NC(=O)[C@@H](Cc2ccccc2)NC(=O)[C@H](CCN)NC1=O)[C@@H](C)O (X1-[Dab]T[Dab][Dab][Dab][dF]L[Dab][Dab]T; lactam 4-C)
≤ 0.06 µg/mL

API: value(readout= MIC, system= Escherichia coli, query= `CCCCCCCCCC(=O)N[C@H](CCN)C(=O)N[C@H]1CCNC(=O)[C@H]([C@@H](C)O)NC(=O)[C@H](CCN)NC(=O)[C@H](CCN)NC(=O)[C@H](CC(C)C)NC(=O)[C@@H](CC(C)C)NC(=O)[C@H](CCCCN)NC1=O` )
> 64 µg/mL

Request body: readout MIC, system Escherichia coli, query `CCCCCCCCCC(=O)N[C@H](CCN)C(=O)N[C@H]1CNC(=O)[C@H]([C@@H](C)O)NC(=O)[C@H](CCN)NC(=O)[C@H](CCN)NC(=O)[C@H](CC(C)C)NC(=O)[C@@H](CC(C)C)NC(=O)[C@H](CCN)NC1=O` . Return the value.
> 64 µg/mL
